test: Fatty acids in rat plasma after oral 2OHOA sodium salt (gas chromatography); type: in vivo; details: plasma, oral 2OHOA sodium salt 2 g/Kg, read-out: Plasma level after 8 hours
Recorded metric: concentration at 8 h (µM)
Give a bare numeral; the unit µM is implied.

QUERY: For the compound CCCCCCCC/C=C\CCCCCCC(O)C(=O)O (stereo not shown) [2OHOA, 2-hydroxyoleic acid] , report concentration at 8 h.
RESULT: 7.12

###

Test: Fatty acids in plasma of patients with advanced glioma treated with 2OHOA sodium salt
Type: in vivo, human
Conditions: human, plasma, oral; patients (responders and non-responders), 12 g/day 2OHOA sodium salt; read-out: Plasma level 4 hours after the first intake
Description: FIG. 24. Analysis of composition in fatty acids in human patients with advanced glioma. (A) Representative chromatogram of the fatty acid composition of a patient with glioma responsive to treatment with 2OHOA sodium salt (12 g/day, 21 days) and determined in plasma samples obtained at different treatment times (0, 4 and 360 hours, 15 days) by gas chromatography. […] The C17:0 margaric acid in the chromatograms was quantified as internal control. […]
Recorded metric: concentration at 4 h
Dear colleague, please send the value followed by its unit.

QUERY: For the compound CCCCCCCC/C=C\CCCCCCC(O)C(=O)O (stereo not shown) [2OHOA, 2-hydroxyoleic acid] , report concentration at 4 h.
RESULT: 53.1 µM

###

test: Fatty acids in rat plasma after oral 2OHOA sodium salt (gas chromatography); assay type: in vivo; details: plasma, oral 2OHOA sodium salt 2 g/Kg, read-out: Plasma level at 24 hours (trough values)
Recorded metric: concentration at 24 h (nM)
Give a bare numeral; the unit nM is implied.

QUERY: For the compound CCCCCCCC/C=C\CCCCCCC(O)C(=O)O (stereo not shown) [2OHOA, 2-hydroxyoleic acid] , report concentration at 24 h.
RESULT: 2800

###

test: Fatty acids in plasma of patients with advanced glioma treated with 2OHOA sodium salt; type: in vivo, human; conditions: human, plasma, oral; patients, 12 g/day 2OHOA sodium salt; read-out: Plasma level at 8 days of treatment (192 hours)
Recorded metric: concentration at 192 h (µM)
Give a bare numeral; the unit µM is implied.

QUERY: For the molecule CCCCCCCC/C=C\CCCCCCC(O)C(=O)O (stereo not shown) [2OHOA, 2-hydroxyoleic acid] , report concentration at 192 h.
RESULT: 25.4

###

assay: Fatty acids in rat plasma after oral 2OHOA sodium salt (gas chromatography); type: in vivo; conditions: plasma, oral 2OHOA sodium salt 2 g/Kg, read-out: Plasma level at 0 hours (initial levels, prior to administration)
Recorded metric: concentration at 0 h (nM)
Give a bare numeral; the unit nM is implied.

QUERY: For the compound CCCCCCCC/C=C\CCCCCCC(O)C(=O)O (stereo not shown) [2OHOA, 2-hydroxyoleic acid] , report concentration at 0 h.
RESULT: 1220

###

assay: Fatty acids in plasma of patients with advanced glioma treated with 2OHOA sodium salt; format: in vivo, human; settings: human, plasma, oral; patients, 12 g/day 2OHOA sodium salt; read-out: Plasma level after 15 days (360 hours) of treatment
Recorded metric: concentration at 360 h (µM)
Give a bare numeral; the unit µM is implied.

QUERY: For the compound CCCCCCCC/C=C\CCCCCCC(O)C(=O)O (stereo not shown) [2OHOA, 2-hydroxyoleic acid] , report concentration at 360 h.
RESULT: 185

###

experiment: Fatty acids in plasma of patients with advanced glioma treated with 2OHOA sodium salt; assay type: in vivo, human; settings: human, plasma, oral; patients, 12 g/day 2OHOA sodium salt; read-out: Plasma level 8 hours after treatment
Recorded metric: concentration at 8 h (µM)
Give a bare numeral; the unit µM is implied.

QUERY: For the compound CCCCCCCC/C=C\CCCCCCC(O)C(=O)O (stereo not shown) [2OHOA, 2-hydroxyoleic acid] , report concentration at 8 h.
RESULT: 25.4
